Below are IC50 values recorded for UniProt:P12931.
Sequence (P12931 2-536 limits assumed): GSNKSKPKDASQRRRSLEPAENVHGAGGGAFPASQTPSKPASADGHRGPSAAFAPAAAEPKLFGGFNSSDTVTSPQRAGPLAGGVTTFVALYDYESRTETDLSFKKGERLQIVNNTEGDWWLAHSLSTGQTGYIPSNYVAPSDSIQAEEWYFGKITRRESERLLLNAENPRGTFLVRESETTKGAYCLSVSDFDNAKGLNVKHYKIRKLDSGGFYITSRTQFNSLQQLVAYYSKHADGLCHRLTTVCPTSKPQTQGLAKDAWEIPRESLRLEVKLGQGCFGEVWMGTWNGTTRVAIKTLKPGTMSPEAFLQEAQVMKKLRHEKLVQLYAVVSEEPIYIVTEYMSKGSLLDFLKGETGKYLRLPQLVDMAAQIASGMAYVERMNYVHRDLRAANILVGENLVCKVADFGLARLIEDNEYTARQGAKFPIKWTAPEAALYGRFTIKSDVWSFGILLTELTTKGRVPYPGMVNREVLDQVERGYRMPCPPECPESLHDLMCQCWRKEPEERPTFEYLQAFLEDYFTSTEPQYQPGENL

CNc1nc2c(nc(-c3ccccc3)n2C)c2c1ncn2C    < 50 µM
CNc1nc2oc(-c3ccccc3)nc2c2c1ncn2C    < 50 µM

Proceed to the following item.
Inquiry: Kindly state the measured IC50 obtained for CNc1nc2sc(-c3cccc(CNC(C)=O)c3)nc2c2c1ncn2C with UniProt:P12931.
Reply text: < 50 µM

* * *

- target-under-test: Tyrosine-protein kinase ITK/TSK (Homo sapiens, UniProt Q08881)
- Sequence (Q08881 whole entry): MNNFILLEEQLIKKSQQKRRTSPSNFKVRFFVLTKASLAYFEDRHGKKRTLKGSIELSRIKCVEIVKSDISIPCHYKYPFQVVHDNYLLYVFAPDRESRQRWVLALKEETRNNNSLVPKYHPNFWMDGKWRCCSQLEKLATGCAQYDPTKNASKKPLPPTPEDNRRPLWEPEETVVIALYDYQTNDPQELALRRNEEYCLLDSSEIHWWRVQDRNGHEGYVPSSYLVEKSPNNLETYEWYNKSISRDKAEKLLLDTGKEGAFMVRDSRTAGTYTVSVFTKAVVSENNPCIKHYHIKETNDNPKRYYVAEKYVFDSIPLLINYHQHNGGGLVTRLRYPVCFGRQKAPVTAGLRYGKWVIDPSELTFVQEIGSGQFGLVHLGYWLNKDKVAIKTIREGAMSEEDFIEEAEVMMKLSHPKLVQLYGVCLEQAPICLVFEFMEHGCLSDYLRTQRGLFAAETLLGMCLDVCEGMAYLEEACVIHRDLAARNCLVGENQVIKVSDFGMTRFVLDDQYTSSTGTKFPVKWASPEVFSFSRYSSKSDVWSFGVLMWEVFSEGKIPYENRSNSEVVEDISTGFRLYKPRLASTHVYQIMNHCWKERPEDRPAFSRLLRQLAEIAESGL
// IC50 lookup, one value per entry
Lab book: enter the figure in µM, no units written.

CNc1nc2sc(-c3cccc(CNC(C)=O)c3)nc2c2c1ncn2C    9.1

Continue with the next compound.
Inquiry: Given the compound CNc1nc2c(nc(-c3ccccc3)n2C)c2c1ncn2C , what is its reported IC50?
Reply text: 19

* * *

Listing: viability at 10 µM of selected compounds
- procedure-summary: Cytotoxicity against human PBMC assessed as cell viability at 10 uM by alamar blue assay
- Type: cell-based
- applied-conditions: read-out: Activity
# number then unit; no other words

Sample records with viability at 10 µM:
Cn1cnc2c(NCCN3CCCCC3)nc3sc(-c4ccc(F)cc4)nc3c21    0%
CNc1nc2sc(-c3ccc(F)cc3)nc2c2c1ncn2C    74%
Cn1cnc2c(NCCNCCO)nc3sc(-c4ccc(F)cc4)nc3c21    0%
CCNc1nc2sc(-c3ccc(F)cc3)nc2c2c1ncn2C    86%

Inquiry: Which viability at 10 µM is reported for this compound? CC(=O)NCCNc1nc2sc(-c3ccc(F)cc3)nc2c2c1ncn2C
Reply text: 80%

* * *

- procedure-summary: Volume of distribution at steady state in rat at 2 mg/kg, iv
- Type: ADME, organism-based
- Design: dose 2 mg/kg, route intravenous
- applied-conditions: in vivo, read-out: Vdss
Below, each entry is listed with its recorded Vd.
# number only, unit L/kg dropped from output

Example entries begin here.
CNc1nc2sc(-c3ccc(F)c(CNS(C)(=O)=O)c3)nc2c2c1ncn2C    0.4
CNc1nc2sc(-c3ccccc3)nc2c2c1ncn2C    2.8
CNc1nc2sc(N3CCCCCC3)nc2c2c1ncn2C    2.6
CNc1nc2sc(-c3ccc(F)cc3)nc2c2c1ncn2C    3.2
Cn1cnc2c(NCCNCCO)nc3sc(-c4ccc(F)cc4)nc3c21    10.4
CNc1nc2sc(-c3ccc(F)c(CNC(C)=O)c3)nc2c2c1ncn2C    0.5
CNc1nc2cc(-c3ccccc3)nn2c2c1ncn2C    2.1
CCN(CC)C(=O)c1nc2c(nc(NC)c3ncn(C)c32)s1    0.6

Inquiry: Need Vd, item CNc1nc2sc(-c3cccc(CNS(C)(=O)=O)c3)nc2c2c1ncn2C
Reply text: 0.9

Inquiry: Reported Vd for CNc1nc2sc(-c3cccc(CNC(=O)c4ccno4)c3)nc2c2c1ncn2C : what is it?
Reply text: 0.2

Inquiry: For the compound CC(=O)NCCNc1nc2sc(-c3ccc(F)cc3)nc2c2c1ncn2C , what Vd is on record?
Reply text: 0.5

Inquiry: I have this compound here, CNc1nc2sc(-c3cccc(CNC(=O)c4csnn4)c3)nc2c2c1ncn2C , and I need its recorded Vd.
Reply text: 0.2

* * *

Each entry below carries its reported half-life.
- procedure-summary: Half life in rat at 2 mg/kg, iv
- Format: ADME, organism-based
- Set-up: dose 2 mg/kg, route intravenous
- applied-conditions: in vivo
// return numeric value only (unit: min, not printed)

CNc1nc2sc(-c3cccc(CNC(=O)c4csnn4)c3)nc2c2c1ncn2C    36
CNc1nc2sc(N3CCCCCC3)nc2c2c1ncn2C    24
CNc1nc2sc(-c3cccc(CNS(C)(=O)=O)c3)nc2c2c1ncn2C    18
CNc1nc2sc(-c3ccccc3)nc2c2c1ncn2C    72
CNc1nc2cc(-c3ccccc3)nn2c2c1ncn2C    30

Inquiry: Tell me the measured half-life of CNc1nc2sc(-c3ccc(F)c(CNC(C)=O)c3)nc2c2c1ncn2C , please.
Reply text: 18

* * *

- procedure-summary: Cmax in rat at 2 mg/kg, iv
- Type: ADME, organism-based
- Design: dose 2 mg/kg, route intravenous
- applied-conditions: in vivo
measured-property: Cmax
Could you give the number and then its unit, please?

Examples with answers:
CNc1nc2sc(-c3ccccc3)nc2c2c1ncn2C    3000 nM
Cn1cnc2c(NCCNCCO)nc3sc(-c4ccc(F)cc4)nc3c21    600 nM
CNc1nc2sc(-c3ccc(F)cc3)nc2c2c1ncn2C    1600 nM
CNc1nc2sc(-c3ccc(F)c(CNS(C)(=O)=O)c3)nc2c2c1ncn2C    1200 nM
CNc1nc2sc(-c3cccc(CNS(C)(=O)=O)c3)nc2c2c1ncn2C    500 nM

Next compound, Cmax to be filled in.
Inquiry: Would you mind telling me what Cmax value was observed for CNc1nc2cc(-c3ccccc3)nn2c2c1ncn2C ?
Reply text: 3600 nM

* * *

- procedure-summary: Metabolic stability in mouse liver microsomes assessed as clearance at 3 uM after 1 hr
- Assay type: ADME, Microsome
Label rule, in plain words: CL of 0.2 nmol/mg/min and up is 1.0, under 0.2 nmol/mg/min is 0.0.

CC(=O)NCCNc1nc2sc(-c3ccc(F)cc3)nc2c2c1ncn2C    0.0
CNc1nc2sc(N3CCCCCC3)nc2c2c1ncn2C    1.0
CNc1nc2c(nc(-c3ccccc3)n2C)c2c1ncn2C    0.0
CNc1nc2sc(-c3cccc(CNC(=O)c4ccno4)c3)nc2c2c1ncn2C    1.0

Inquiry: Tell me whether CL is at least 0.2 nmol/mg/min here: CNc1nc2sc(-c3ccc(F)cc3)nc2c2c1ncn2C
Reply text: 1.0

Inquiry: Determine whether this molecule has CL no lower than 0.2 nmol/mg/min: Cn1cnc2c(NCCNCCO)nc3sc(-c4ccc(F)cc4)nc3c21
Reply text: 0.0

Inquiry: Please indicate if the recorded CL for CNc1nc2oc(-c3ccccc3)nc2c2c1ncn2C meets or exceeds 0.2 nmol/mg/min.
Reply text: 1.0

Inquiry: Please indicate if the recorded CL for CNc1nc2sc(-c3cccc(CNS(C)(=O)=O)c3)nc2c2c1ncn2C meets or exceeds 0.2 nmol/mg/min.
Reply text: 0.0

Inquiry: Reported CL reaches at least 0.2 nmol/mg/min for CNc1nc2sc(-c3ccc(F)c(CNS(C)(=O)=O)c3)nc2c2c1ncn2C ?
Reply text: 0.0

Inquiry: Form field: CL at least 0.2 nmol/mg/min? Entry: CNc1nc2sc(-c3cccc(CNC(=O)c4csnn4)c3)nc2c2c1ncn2C
Reply text: 1.0

Inquiry: Confirm if CL reported for the molecule CNc1nc2sc(-c3ccccc3)nc2c2c1ncn2C is 0.2 nmol/mg/min or above.
Reply text: 1.0

Inquiry: Check the entry CNc1nc2cc(-c3ccccc3)nn2c2c1ncn2C : does CL equal or exceed 0.2 nmol/mg/min?
Reply text: 0.0

* * *

- target-under-test: Inhibitor of nuclear factor kappa-B kinase subunit alpha (Homo sapiens)
- Sequence (O15111 whole entry, the tested form may be a part): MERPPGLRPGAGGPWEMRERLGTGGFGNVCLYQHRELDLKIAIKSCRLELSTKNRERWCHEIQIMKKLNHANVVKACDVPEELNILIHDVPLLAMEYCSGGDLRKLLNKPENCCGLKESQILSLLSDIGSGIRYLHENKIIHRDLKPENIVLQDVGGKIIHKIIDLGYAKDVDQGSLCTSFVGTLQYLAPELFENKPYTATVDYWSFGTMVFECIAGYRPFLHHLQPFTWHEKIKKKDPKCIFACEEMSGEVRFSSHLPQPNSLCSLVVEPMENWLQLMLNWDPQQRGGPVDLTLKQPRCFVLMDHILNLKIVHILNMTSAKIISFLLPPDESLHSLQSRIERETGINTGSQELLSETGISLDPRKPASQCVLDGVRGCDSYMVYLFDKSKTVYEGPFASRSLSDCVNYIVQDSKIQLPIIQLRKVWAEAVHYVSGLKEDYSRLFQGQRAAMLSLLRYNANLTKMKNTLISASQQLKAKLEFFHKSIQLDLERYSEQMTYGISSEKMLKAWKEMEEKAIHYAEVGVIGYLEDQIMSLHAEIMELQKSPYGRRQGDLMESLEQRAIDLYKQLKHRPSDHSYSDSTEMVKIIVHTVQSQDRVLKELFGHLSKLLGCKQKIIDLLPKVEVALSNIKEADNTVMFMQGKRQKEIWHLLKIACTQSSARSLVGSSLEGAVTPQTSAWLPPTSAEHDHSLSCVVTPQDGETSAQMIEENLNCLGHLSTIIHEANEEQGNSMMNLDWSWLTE
- procedure-summary: Inhibition of IKK1-mediated phosphorylation of GST-IkappaBalpha fusion protein afterr 60 mins by fluorescence polarization assay
Consider the following compounds and their measured log10 IC50 readings.
Plainly stated, the numbers are log10 of IC50 given in µM.

CNc1nc2sc(SC)nc2c2c1ncn2C    0.41
CNc1nc2sc(N3CC=CCC3)nc2c2c1ncn2C    0.91
CNc1nc2cc(-c3ccccc3)nn2c2c1ncn2C    0.00
CCN(CC)C(=O)c1nc2c(nc(NC)c3ncn(C)c32)s1    1.30
CNC(=O)c1nc2c(nc(NC)c3ncn(C)c32)s1    -0.08
CNc1nc2c(nc(-c3ccccc3)n2C)c2c1ncn2C    0.63
CNc1nc2sc(-c3ccccc3)nc2c2c1ncn2C    0.54
CNc1nc2sc(N3CCCCC3)nc2c2c1ncn2C    0.79
CNc1nc2c(nc(NC)c3ncn(C)c32)s1    0.53
CNc1nc2sc(-c3ccc(F)c(CNS(C)(=O)=O)c3)nc2c2c1ncn2C    0.62

Inquiry: Looking for the measured log10 IC50 of CCNC(=O)c1nc2c(nc(NC)c3ncn(C)c32)s1 , can you help?
Reply text: 0.04

Inquiry: Which log10 IC50 is listed for CNc1nc2sc(-c3cccc(CNC(=O)c4ccno4)c3)nc2c2c1ncn2C ?
Reply text: 0.15

Inquiry: Which measured log10 IC50 value corresponds to Cc1cnc2c(NCCN)nc3cc(-c4ccccc4)sc3n12 ?
Reply text: -0.40

Inquiry: Please look up its log10 IC50: Cn1cnc2c(NCCN3CCCCC3)nc3sc(-c4ccc(F)cc4)nc3c21
Reply text: 0.92

Inquiry: Look up log10 IC50 for this compound: Cn1cnc2c(NCCNCCO)nc3sc(-c4ccc(F)cc4)nc3c21
Reply text: 0.93

Inquiry: Look up log10 IC50: CNc1nc2sc(-c3ccc(F)c(CNC(C)=O)c3)nc2c2c1ncn2C
Reply text: 0.54

Inquiry: // lookup log10 IC50 for CNc1nc2sc(-c3cccc(CNC(=O)c4csnn4)c3)nc2c2c1ncn2C
Reply text: 1.00

Inquiry: Please give the measured log10 IC50 for this compound: CC(=O)NCc1cc(-c2cc3nc(NC4CC4)c4ncn(C)c4n3n2)ccc1F
Reply text: 0.99
